Assembled from different publications: log10 IC50 for Histone deacetylase 2 (Homo sapiens).
Friendly reminder: values = log10 of IC50, unit nM.

See these solved cases before continuing.
// query Query the reported log10 IC50 for Histone deacetylase 2 (Homo sapiens); item: `O=C(NO)c1ccc(NC(=O)[C@@H](NC(=O)c2cccc(Br)c2)c2ccccc2)cc1`
// result 1.95

// query Lookup: log10 IC50 / Histone deacetylase 2 (Homo sapiens) / CCN1CCN(C(c2cccnc2)c2cc(Cl)c3cccnc3c2O)CC1 (configuration not stated)
// result 4.83

// query Query the reported log10 IC50 for Histone deacetylase 2 (Homo sapiens); item: `O=C(NO)c1ccc(NC(=O)[C@@H](NC(=O)c2ccc3ccccc3c2)c2ccccc2)cc1`
// result 2.39

// query Requested read-out log10 IC50, target or system Histone deacetylase 2 (Homo sapiens), entry `O=C(NO)c1ccc(NC(=O)[C@@H](NS(=O)(=O)c2cccc3ccccc23)c2ccccc2)cc1`
// result 2.23

// query // map `CC1(Nc2ncc(C(=O)Nc3cc(-c4ccccc4)ccc3N)cn2)CCNCC1` to recorded log10 IC50 (system: Histone deacetylase 2 (Homo sapiens))
Sequence (Q92769 whole entry): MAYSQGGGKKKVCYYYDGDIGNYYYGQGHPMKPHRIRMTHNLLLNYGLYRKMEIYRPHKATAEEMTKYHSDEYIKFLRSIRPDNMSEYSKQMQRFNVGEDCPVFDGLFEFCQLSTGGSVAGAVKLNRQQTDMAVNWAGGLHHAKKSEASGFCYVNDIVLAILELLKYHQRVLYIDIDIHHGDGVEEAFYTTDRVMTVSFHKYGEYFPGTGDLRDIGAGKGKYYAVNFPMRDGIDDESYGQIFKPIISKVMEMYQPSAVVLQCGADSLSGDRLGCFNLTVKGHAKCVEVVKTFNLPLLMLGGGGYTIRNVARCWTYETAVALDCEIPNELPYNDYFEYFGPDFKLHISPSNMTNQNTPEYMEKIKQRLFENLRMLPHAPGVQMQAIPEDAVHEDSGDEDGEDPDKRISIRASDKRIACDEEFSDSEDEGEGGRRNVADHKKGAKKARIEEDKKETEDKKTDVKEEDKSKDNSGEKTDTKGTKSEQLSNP
// result 1.41

***
// query Give the reported log10 IC50 for `CN(c1ncc(C(=O)Nc2cc(-c3ccccc3)ccc2N)cn1)C1CCN(C(=O)Cc2c[nH]c3ccccc23)CC1` (system: Histone deacetylase 2 (Homo sapiens)).
// result 2.32
